Biological target: Potassium voltage-gated channel subfamily A member 3 (Homo sapiens)
Sequence (P22001 whole entry): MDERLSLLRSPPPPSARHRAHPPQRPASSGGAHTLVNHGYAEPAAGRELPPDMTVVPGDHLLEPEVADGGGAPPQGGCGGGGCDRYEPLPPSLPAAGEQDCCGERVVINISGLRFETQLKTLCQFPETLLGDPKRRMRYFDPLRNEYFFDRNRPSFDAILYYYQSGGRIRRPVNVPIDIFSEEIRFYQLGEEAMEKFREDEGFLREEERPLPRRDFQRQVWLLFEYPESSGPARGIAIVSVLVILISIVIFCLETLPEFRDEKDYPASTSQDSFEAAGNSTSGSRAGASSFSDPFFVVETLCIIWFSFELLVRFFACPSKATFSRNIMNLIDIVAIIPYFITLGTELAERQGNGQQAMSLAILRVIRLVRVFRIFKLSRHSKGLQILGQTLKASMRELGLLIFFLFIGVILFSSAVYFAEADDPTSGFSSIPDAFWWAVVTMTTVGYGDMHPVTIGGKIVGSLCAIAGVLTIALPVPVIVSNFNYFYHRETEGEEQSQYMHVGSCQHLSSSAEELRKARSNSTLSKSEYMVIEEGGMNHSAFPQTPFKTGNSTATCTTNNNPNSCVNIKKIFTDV
Experiment: Inhibition of human Kv1.3 ion channel expressed in CGE22 cells
pIC50: −log10 of the molar value.
readout.label: pIC50

Some solved entries appear below for comparison.
{"smiles.record": "CC(C)(CNC(=O)c1ccncc1O)CN(C1=NS(=O)(=O)c2cc(F)ccc21)c1ccccc1", "pIC50": "< 4.30"}
{"smiles.record": "CC(C)(CNC(=O)c1cc2ccccc2o1)CN(C1=NS(=O)(=O)c2cc(F)ccc21)c1ccccc1", "pIC50": "< 4.30"}

*Q* Which pIC50 is reported with Potassium voltage-gated channel subfamily A member 3 (Homo sapiens) for this entry: CN1CCC(C(=O)NCC(C)(C)CN(C2=NS(=O)(=O)c3cc(F)ccc32)c2ccccc2)CC1 ?
*A* < 4.30

The origin of these recorded values is ChEMBL document CHEMBL1287701.
